# measurementTarget: Ba/F3-FGFR3-transfected cells (Homo sapiens, UniProt P22607)
# Sequence (P22607 whole entry, change not shown): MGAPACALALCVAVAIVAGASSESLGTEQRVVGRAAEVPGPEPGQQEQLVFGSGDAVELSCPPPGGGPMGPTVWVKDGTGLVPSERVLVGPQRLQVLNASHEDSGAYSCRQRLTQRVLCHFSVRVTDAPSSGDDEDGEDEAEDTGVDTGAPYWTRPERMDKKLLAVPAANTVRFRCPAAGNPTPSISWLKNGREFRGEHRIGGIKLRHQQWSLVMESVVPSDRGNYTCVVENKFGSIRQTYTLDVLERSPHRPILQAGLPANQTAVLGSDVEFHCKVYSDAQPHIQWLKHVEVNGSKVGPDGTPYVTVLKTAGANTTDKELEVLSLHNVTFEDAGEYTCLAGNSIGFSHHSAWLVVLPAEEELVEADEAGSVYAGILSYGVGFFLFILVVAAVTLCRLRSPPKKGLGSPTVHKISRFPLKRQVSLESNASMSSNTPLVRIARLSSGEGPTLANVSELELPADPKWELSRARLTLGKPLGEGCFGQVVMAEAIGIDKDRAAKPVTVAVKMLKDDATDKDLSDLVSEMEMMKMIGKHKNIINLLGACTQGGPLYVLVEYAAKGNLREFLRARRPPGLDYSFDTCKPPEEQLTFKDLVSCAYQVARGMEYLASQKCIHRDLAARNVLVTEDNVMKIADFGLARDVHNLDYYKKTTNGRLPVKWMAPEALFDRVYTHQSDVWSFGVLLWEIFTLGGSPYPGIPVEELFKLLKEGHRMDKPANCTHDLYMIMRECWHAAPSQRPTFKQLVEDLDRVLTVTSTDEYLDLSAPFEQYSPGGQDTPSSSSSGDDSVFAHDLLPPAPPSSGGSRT
# assaySummary: Ba/F3-FGFR3 (minus IL3) cellular proliferation assay, Alamar Blue
# Format: cell-based
# conditions: minus IL3, 384 well

{"testSmiles": "COc1cc(OC)cc(N(CC2CC2)c2ccc3ncc(N4CCN(CCO)CC4)nc3c2)c1", "BAF3-FGFR 3 (MIN IL3) 384 well pIC50": "<5"}
{"testSmiles": "COc1cc(OC)cc(N(CC2CC2)c2ccc3ncc(-c4nnn[nH]4)nc3c2)c1", "BAF3-FGFR 3 (MIN IL3) 384 well pIC50": "<5"}
{"testSmiles": "COc1cc(OC)cc(N(CC2CC2)c2ccc3ncc(-c4cccn4C)nc3c2)c1", "BAF3-FGFR 3 (MIN IL3) 384 well pIC50": "<5"}
{"testSmiles": "COc1cc(OC)cc(N(CCCO)c2ccc3ncc(-c4ccnc(Cl)c4)nc3c2)c1", "BAF3-FGFR 3 (MIN IL3) 384 well pIC50": 5.71}
